The reported measurements were obtained from PubChem BioAssay AID1159580.

assay.overview: chemical genetic growth profiling, strain panel (AID 1159580);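 also: tested at 20 µM; growth read once vehicle control cultures reached saturation at 30 °C; 1 = growth at the plate median or of vehicle wells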
test.context: S. cerevisiae deletion strains, growth OD, locus YPR141C, strain kar3, stronger effect = lower value
Out of some 5,500 compounds screened, about 2,000 (36%) were called active. About 18% were inconclusive and are not listed. This is one part of the list.

{"molecule": "CSc1ccc2c(c1)C(N1CCN(C)CC1)Cc1ccccc1S2 (stereo not given)", "normalized growth": 0.998}
{"molecule": "CCCCC1C(=O)N(c2ccccc2)N(c2ccccc2)C1=O", "normalized growth": 0.961}
{"molecule": "COc1cccc2c1cc([N+](=O)[O-])c1c(C(=O)O)cc3c(c12)OCO3", "normalized growth": 1.02}
{"molecule": "CC(=O)N(O)CCCCCNC(=O)CCC(=O)N(O)CCCCCNC(=O)CCC(=O)N(O)CCCCCN", "normalized growth": 1.05}
{"molecule": "CN1CCN2c3ccccc3Cc3ccccc3C2C1 (stereo not given)", "normalized growth": 0.975}
{"molecule": "COc1cc2c3cc1Oc1cc(ccc1O)C[C@@H]1c4c(cc(OC)c(O)c4Oc4ccc(cc4)C[C@@H]3N(C)CC2)CC[N+]1(C)C", "normalized growth": 1.01}
{"molecule": "NCCc1ccc(O)cc1", "normalized growth": 0.996}
{"molecule": "CC1(C)O[C@@H]2CC3C4CCC5=CC(=O)C=C[C@]5(C)[C@@]4(F)[C@@H](O)C[C@]3(C)[C@]2(C(=O)CO)O1 (stereo not given in full)", "normalized growth": 0.998}
{"molecule": "Cn1c(=O)c2[nH]c(C3CCCC3)nc2n(C)c1=O", "normalized growth": 0.997}
{"molecule": "CCC1C2CC3C4N(C)c5ccccc5C45CC(C2C5OC(C)=O)N3C1OC(C)=O (stereo not given)", "normalized growth": 1.01}

----------
assay.overview: chemical genetic growth profiling, strain panel (AID 1159580)
test.context: S. cerevisiae deletion strains, growth OD, locus YGL240W, strain doc1, stronger effect = lower value
The campaign covered roughly 5,500 compounds. About 2,000 (36%) were called active. About 18% were inconclusive and are not listed. This is one part of the list.
Reported normalized growth values for a set of compounds
measure.name: normalized growth

{"compound": "CCn1cc(C(=O)O)c(=O)c2cc(F)c(N3CCNCC3)cc21", "recorded.result": 0.973}
{"compound": "C=CCCCCCCCCCCCC(O)CC(O)CO (configuration not stated)", "recorded.result": 0.993}
{"compound": "C=C1C2CC[C@@]3(C)[C@H](c4ccoc4)OC(=O)C[C@]13O[C@H]1CC(=O)C(C)(C)[C@H](C(O)C(=O)OC)[C@@]21C (some centres not stated)", "recorded.result": 0.989}
{"compound": "CC1=CCc2c(cc3oc(C)cc(=O)c3c2O)OC1", "recorded.result": 0.951}
{"compound": "O=C1CC[C@]23C=CC(=O)NCCCCNCCCNC(=O)/C=C/c4ccc(c2c4)O[C@@H]3C1", "recorded.result": 1.02}
{"compound": "C=CCc1ccccc1OCC(O)CNC(C)C (configuration not stated)", "recorded.result": 0.983}
{"compound": "Cn1nnnc1SCC1=C(C(=O)O)N2C(=O)C(NC(=O)C(O)c3ccccc3)C2SC1 (configuration not stated)", "recorded.result": 0.992}

----------
assay.overview: chemical genetic growth profiling, strain panel (AID 1159580)
test.context: S. cerevisiae deletion strains, growth OD, locus YJL095W, strain BCK1, stronger effect = lower value
About 2,000 (36%) of roughly 5,500 compounds were called active. Another 18% or so got no clear call; they are omitted. The list shows a part of the results.

{"molecule": "CC(=O)[C@H]1CCC2C3CC=C4C[C@@H](OC(=O)CCC(=O)O)CC[C@]4(C)C3CC[C@@]21C (stereo partly drawn)", "normalized growth": 0.913}
{"molecule": "Clc1ccc(Cl)cc1", "normalized growth": 1.02}
{"molecule": "CC(=O)O.CC(=O)O.[Cd]", "normalized growth": 0.266}
{"molecule": "OC1C(O)C(O)C(O)C(O)C1O (stereo not drawn)", "normalized growth": 0.991}
{"molecule": "CC(=O)Oc1cc(OC(C)=O)c2c(=O)c(-c3ccccc3)coc2c1", "normalized growth": 1.01}
{"molecule": "CCn1nc(C)cc1-c1nnc(Sc2ncc([N+](=O)[O-])s2)n1C", "normalized growth": 0.933}
{"molecule": "O=c1c2ccccc2oc2ccc(O)cc12", "normalized growth": 0.516}
{"molecule": "[N-]=[N+]=CC(=O)OCC(N)C(=O)O (stereo not drawn)", "normalized growth": 0.977}
{"molecule": "COc1cc(NC(=S)Nc2ccccc2OC(F)(F)F)cc(C(F)(F)F)c1", "normalized growth": 0.956}
{"molecule": "Cc1coc2ccccc2c1=O", "normalized growth": 0.988}
{"molecule": "O=C1Nc2ccccc2/C1=N/N=C\\c1cc(Br)cc(Br)c1O", "normalized growth": 0.112}
{"molecule": "O=c1c2ccccc2oc2ccccc12", "normalized growth": 0.857}
{"molecule": "O=C(O)c1cc(=O)c2ccccc2o1", "normalized growth": 1.03}

----------
assay.overview: chemical genetic growth profiling, strain panel (AID 1159580);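 also: tested at 20 µM; growth read once vehicle control cultures reached saturation at 30 °C; 1 = growth at the plate median or of vehicle wells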
test.context: S. cerevisiae deletion strains, growth OD, locus YML124C, strain tub3, stronger effect = lower value
Screen size: about 5,500 compounds; about 2,000 (36%) were called active. Inconclusive results (about 18%) are left out. The list shows a part of the results.
Threshold-based label: normalized growth under 0.9 gives rule met, normalized growth not under 0.9 gives rule not met.

{"molecule.smiles": "COc1ccc2cc3[n+](cc2c1OC)CCc1cc2c(cc1-3)OCO2", "classification": "rule met"}
{"molecule.smiles": "C[n+]1cc2c3c(ccc2c2ccc4cc5c(cc4c21)OCO5)OCO3", "classification": "rule met"}
{"molecule.smiles": "CC(=O)Oc1cc(OC(C)=O)c2c(=O)c(-c3ccccc3)coc2c1", "classification": "rule not met"}
{"molecule.smiles": "COc1cc2cc[n+]3cc4c(OC)c(OC)ccc4cc3c2cc1OC", "classification": "rule not met"}
{"molecule.smiles": "O=c1c(-c2ccc(O)cc2)coc2cc(O)cc(O)c12", "classification": "rule not met"}

----------
assay.overview: chemical genetic growth profiling, strain panel (AID 1159580);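 also: tested at 20 µM; growth read once vehicle control cultures reached saturation at 30 °C; 1 = growth at the plate median or of vehicle wells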
test.context: S. cerevisiae deletion strains, growth OD, locus YKL203C, strain TOR2, stronger effect = lower value
Out of some 5,500 compounds screened, about 2,000 (36%) were called active. Roughly 18% stayed inconclusive and do not appear here. This is one part of the list.
Measured normalized growth values are reported for all entries that follow.
measure.name: normalized growth

{"molecule.smiles": "CC(C)(C)c1cc2nc(C(F)(F)F)cc(NNC(=O)c3ccc(Cl)cc3)n2n1", "measure.name": "normalized growth", "recorded.result": 1.07}
{"molecule.smiles": "N=c1ccc2nc3c(Cl)c4c(c(Cl)c3oc-2c1S(=O)(=O)O)Nc1ccc(N)c(S(=O)(=O)O)c1O4", "measure.name": "normalized growth", "recorded.result": 1.06}
{"molecule.smiles": "Clc1ccc(-c2csc(Nc3ccccc3)n2)s1", "measure.name": "normalized growth", "recorded.result": 0.385}
{"molecule.smiles": "Cc1csc2ncnc(N/N=C\\c3ccccc3Cl)c12", "measure.name": "normalized growth", "recorded.result": 1}
{"molecule.smiles": "Cc1ccc(C(=O)O/N=C(/N)CSc2ncccc2C(F)(F)F)cc1", "measure.name": "normalized growth", "recorded.result": 1.07}
{"molecule.smiles": "CCn1nc(C)cc1-c1nnc(Sc2ncc([N+](=O)[O-])s2)n1C", "measure.name": "normalized growth", "recorded.result": 1.07}

----------
assay.overview: chemical genetic growth profiling, strain panel (AID 1159580);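 also: tested at 20 µM; growth read once vehicle control cultures reached saturation at 30 °C; 1 = growth at the plate median or of vehicle wells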
test.context: S. cerevisiae deletion strains, growth OD, locus YEL061C, strain CIN8
The whole screen tested about 5,500 compounds, of which about 2,000 (36%) were called active. Inconclusive results (about 18%) are left out. No stated cut-off is given here; in the data, active means normalized growth mostly below about 0.91 (no sharp cut-off); inconclusive means no clear call, values can overlap the other calls; inactive means mostly above about 0.92. The list shows a part of the results.
Labels: active, inactive

{"molecule": "Nc1nc(N)c2nc(-c3ccccc3)c(N)nc2n1", "classification": "inactive"}
{"molecule": "CNCCC=C1c2ccccc2CCc2ccccc21", "classification": "inactive"}
{"molecule": "FC(F)(F)c1ccc(-c2nc(-c3ccc4c(c3)OCCCO4)cs2)cc1", "classification": "inactive"}
{"molecule": "Cc1cc(Br)c(OCC(=O)NN)c2c1CCC2", "classification": "inactive"}
{"molecule": "CCCN1C[C@H](CSC)C[C@@H]2c3cccc4[nH]cc(c34)C[C@H]21", "classification": "inactive"}
{"molecule": "O=C1CCc2cc(OCCCCc3nnnn3C3CCCCC3)ccc2N1", "classification": "inactive"}
{"molecule": "Cc1ccc(OCC(=O)NN)c2c1CCC2", "classification": "inactive"}
{"molecule": "CN(C)CCC=C1c2ccccc2C=Cc2ccccc21", "classification": "inactive"}
{"molecule": "CC(N)Cc1ccc(O)cc1 (stereo not drawn)", "classification": "inactive"}
{"molecule": "CCCCCCCCCCc1ccc(-c2ccccc2)cc1", "classification": "inactive"}
{"molecule": "CCCCCCc1ccc(O)cc1O", "classification": "inactive"}
{"molecule": "c1ccc(Sc2c(-c3ccccc3)nc3ccccn23)cc1", "classification": "active"}
{"molecule": "CC(=O)N(O)CCCCCNC(=O)CCC(=O)N(O)CCCCCNC(=O)CCC(=O)N(O)CCCCCN", "classification": "inactive"}
